Target: human glucagon-like peptide-1 receptor (human, UniProt P43220 24-463)
Sequence (P43220 24-463): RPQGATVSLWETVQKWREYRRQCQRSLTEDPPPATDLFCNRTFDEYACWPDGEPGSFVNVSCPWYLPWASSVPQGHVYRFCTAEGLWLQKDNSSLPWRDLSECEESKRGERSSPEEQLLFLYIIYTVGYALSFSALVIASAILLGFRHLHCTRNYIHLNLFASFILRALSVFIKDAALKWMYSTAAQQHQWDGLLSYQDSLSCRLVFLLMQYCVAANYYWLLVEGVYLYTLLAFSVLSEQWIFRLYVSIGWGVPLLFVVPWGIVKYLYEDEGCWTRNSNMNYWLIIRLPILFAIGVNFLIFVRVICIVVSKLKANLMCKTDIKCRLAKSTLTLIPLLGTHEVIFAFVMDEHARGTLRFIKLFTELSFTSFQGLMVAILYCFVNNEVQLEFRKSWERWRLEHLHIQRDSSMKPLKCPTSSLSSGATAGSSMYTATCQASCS
Test: cell-based or functional assay
Non-standard residues stand in square brackets, D forms with d. Groups on a side chain read outwards from the residue. Primed or numbered codes have the meaning given here. No end group written: not given here. *: point of attachment. C18 diacid = O=C(O)CCCCCCCCCCCCCCCCC(=O)*; Palmitoyl = CCCCCCCCCCCCCCCC(=O)*; PEG2′ = not defined here; Aib = CC(C)(N)C(=O)O
Response field label takes Fulfilled when GLP-1R (EC50, nM), CRE-luciferase in HEK-293 cells is strictly below 0.2 nM and Not fulfilled in all other cases.

- binder: "H[dS]QGTFTSDYSKYLDEKAAK([PEG2′-PEG2′-Glu-C18 diacid])EFIEWLLRA-NH2 [Compound 2]"
  groupLabel: "Not fulfilled"
- binder: "H[dS]QGTFTSDYSKYLD[Aib]K([PEG2′-PEG2′-C18 diacid])RAQDFVQWLMNTGGPSSGAPPPS-NH2 [Compound 12]"
  groupLabel: "Not fulfilled"
- binder: "H[dS]QGTFTSDYSKYLDSK([PEG2′-PEG2′-Glu-C18 diacid])AAHDFVEWLLRA-NH2 [Compound 1]"
  groupLabel: "Not fulfilled"
- binder: "H[dS]QGTFTSDK([PEG2′-PEG2′-C18 diacid])SKYLD[Aib]RRAQDFVQWLMNTGGPSSGAPPPS-NH2 [Compound 6]"
  groupLabel: "Fulfilled"
- binder: "H[dS]QGTFTSDYSKYLDEKAAK([PEG2′-PEG2′-Glu-C18 diacid])EFIEWLLNGGPSSGAPPPS-NH2 [Compound 4]"
  groupLabel: "Fulfilled"
- binder: "H[Aib]QGTFTSDK([PEG2′-PEG2′-Glu-C18 diacid])SKYLDERRAQDFVQWLLDGGPSSGAPPPS-NH2 [Compound 20]"
  groupLabel: "Fulfilled"
- binder: "H[dS]QGTFTSDYSKYLD[Aib]K([PEG2′-PEG2′-Glu-Palmitoyl])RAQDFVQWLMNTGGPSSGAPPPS-NH2 [Compound 13]"
  groupLabel: "Not fulfilled"
- binder: "H[dS]QGTFTSDYSK([PEG2′-PEG2′-Palmitoyl])KLD[Aib]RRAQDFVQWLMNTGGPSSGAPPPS-NH2 [Compound 15]"
  groupLabel: "Not fulfilled"
- binder: "H[dS]QGTFTSDYSKYLDK([PEG2′-PEG2′-C18 diacid])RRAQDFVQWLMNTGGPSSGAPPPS-NH2 [Compound 9]"
  groupLabel: "Not fulfilled"
- binder: "H[dS]QGTFTSDYSKYLDK([PEG2′-PEG2′-Glu-C18 diacid])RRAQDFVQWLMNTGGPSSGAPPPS-NH2 [Compound 11]"
  groupLabel: "Fulfilled"
- binder: "H[dS]QGTFTSDK([PEG2′-PEG2′-Palmitoyl])SKYLD[Aib]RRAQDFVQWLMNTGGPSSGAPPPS-NH2 [Compound 5]"
  groupLabel: "Fulfilled"
- binder: "H[dS]QGTFTSDYSKYLD[Aib]K([PEG2′-PEG2′-Glu-C18 diacid])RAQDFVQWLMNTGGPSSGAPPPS-NH2 [Compound 14]"
  groupLabel: "Not fulfilled"
- binder: "H[dS]QGTFTSDYSK([PEG2′-PEG2′-C18 diacid])KLD[Aib]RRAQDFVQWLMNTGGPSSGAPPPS-NH2 [Compound 16]"
  groupLabel: "Not fulfilled"
- binder: "H[dS]QGTFTSDYSK([PEG2′-PEG2′-Glu-C18 diacid])KLD[Aib]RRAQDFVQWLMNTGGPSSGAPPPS-NH2 [Compound 18]"
  groupLabel: "Not fulfilled"
- binder: "H[dS]QGTFTSDYSKYLDSK([PEG2′-PEG2′-Glu-C18 diacid])AAHDFVEWLLNGGPSSGAPPPS-NH2 [Compound 3]"
  groupLabel: "Not fulfilled"
- binder: "H[dS]QGTFTSDYSKYLDEKAAK([PEG2′-PEG2′-Glu-Palmitoyl])EFIEWLLNGGPSSGAPPPS-NH2 [Compound 24]"
  groupLabel: "Fulfilled"
- binder: "H[Aib]QGTFTSDK([PEG2′-PEG2′-Glu-Palmitoyl])SKYLD[Aib]RRAQDFVQWLLDGGPSSGAPPPS-NH2 [Compound 21]"
  groupLabel: "Fulfilled"
- binder: "H[dS]QGTFTSDYSKYLDEKAAK([PEG2′-PEG2′-Palmitoyl])EFIEWLLNGGPSSGAPPPS-NH2 [Compound 23]"
  groupLabel: "Fulfilled"
- binder: "H[Aib]QGTFTSDK([PEG2′-PEG2′-Glu-Palmitoyl])SKYLDERRAQDFVQWLLDGGPSSGAPPPS-NH2 [Compound 19]"
  groupLabel: "Fulfilled"

The reported measurements were obtained from patent US20170183383A1.
